# testedTarget: HLA-A*02:11
# methodNotes: IEDB peptide-MHC binding, purified MHC/competitive/fluorescence; filed as Kd, often an IC50 or EC50 that approximates it; bounds were set here for any values at or beyond the usual limits of such assays
# particulars: source organism: Vibrio cholerae 2740-80
pKd: −log10 of the molar value.
readoutKind: pKd

Which pKd value belongs to CERYGFPAS ?
≤ 4.70

----------
# testedTarget: HLA-B*40:01
# methodNotes: IEDB peptide-MHC binding, purified MHC/direct/fluorescence; filed as Kd, often an IC50 or EC50 that approximates it; bounds were set here for any values at or beyond the usual limits of such assays
# particulars: source organism: Pseudomonas aeruginosa UCBPP-PA14
readoutKind: Kd

Which Kd value belongs to SPADERAVA ?
≥ 20 µM

----------
# testedTarget: HLA-A*02:19
# methodNotes: IEDB peptide-MHC binding, purified MHC/direct/fluorescence; filed as Kd, often an IC50 or EC50 that approximates it; bounds were set here for any values at or beyond the usual limits of such assays
# particulars: source organism: Orthohantavirus negraense
pKd: −log10 of the molar value.
readoutKind: pKd

Which pKd value belongs to RRFTQAIYD ?
≤ 4.70

----------
# testedTarget: HLA-B*40:01
# methodNotes: IEDB peptide-MHC binding, purified MHC/direct/fluorescence; filed as Kd, often an IC50 or EC50 that approximates it; bounds were set here for any values at or beyond the usual limits of such assays
# particulars: source organism: Sudan ebolavirus - Maleo (1979)
readoutKind: pKd
Friendly reminder that pKd comes from taking -log10 of the concentration in mol/L.

Which pKd value belongs to LEARVNLSV ?
5.63

----------
# testedTarget: HLA-A*23:01
# methodNotes: IEDB peptide-MHC binding, purified MHC/direct/fluorescence; filed as Kd, often an IC50 or EC50 that approximates it; bounds were set here for any values at or beyond the usual limits of such assays
# particulars: source organism: Orthohantavirus tulaense
pKd: −log10 of the molar value.
readoutKind: pKd

Which pKd value belongs to RRAYSGKQY ?
≤ 4.70

----------
# testedTarget: HLA-A*29:02
# methodNotes: IEDB peptide-MHC binding, purified MHC/competitive/fluorescence; filed as Kd, often an IC50 or EC50 that approximates it; bounds were set here for any values at or beyond the usual limits of such assays
# particulars: source organism: Entamoeba histolytica HM-1:IMSS
pKd: −log10 of the molar value.
readoutKind: pKd

Which pKd value belongs to KVSVGSYFC ?
≤ 4.70

----------
# testedTarget: HLA-A*11:01
# methodNotes: IEDB peptide-MHC binding, purified MHC/competitive/fluorescence; filed as Kd, often an IC50 or EC50 that approximates it; bounds were set here for any values at or beyond the usual limits of such assays
# particulars: source organism: Influenza A virus (A/Hong Kong/1074/1999(H9N2))
readoutKind: Kd

Which Kd value belongs to VSDGGPNLY ?
≥ 20 µM

----------
# testedTarget: HLA-A*11:01
# methodNotes: IEDB peptide-MHC binding, purified MHC/direct/fluorescence; filed as Kd, often an IC50 or EC50 that approximates it; bounds were set here for any values at or beyond the usual limits of such assays
# particulars: source organism: Giardia lamblia ATCC 50803
pKd: −log10 of the molar value.
readoutKind: pKd

Example sequences with recorded pKd:
| biopolymerSequence | pKd |
| --- | --- |
| MLMFITSSH | 6.84 |
| HSSVAGGLW | ≤ 4.70 |
| LERIKANIF | ≤ 4.70 |

Which pKd value belongs to QLKQRDALF ?
≤ 4.70

Which pKd value belongs to IPRQWHPFA ?
≤ 4.70

----------
# testedTarget: HLA-B*39:01
# methodNotes: IEDB peptide-MHC binding, purified MHC/competitive/fluorescence; filed as Kd, often an IC50 or EC50 that approximates it; bounds were set here for any values at or beyond the usual limits of such assays
# particulars: source organism: Francisella tularensis subsp. tularensis FSC198
pKd: −log10 of the molar value.
readoutKind: pKd

Which pKd value belongs to RSFPEWDYI ?
≤ 4.70

----------
# testedTarget: HLA-B*08:01
# methodNotes: IEDB peptide-MHC binding, purified MHC/competitive/radioactivity; filed as Kd, often an IC50 or EC50 that approximates it; bounds were set here for any values at or beyond the usual limits of such assays
# particulars: source organism: Dengue virus 4 Philippines/H241/1956
Some sequences, each annotated with its measured Kd.
# unit: nM | format: bare number

Example sequences with recorded Kd:
| biopolymerSequence | Kd (nM) |
| --- | --- |
| LIAIAVASGL | 11700 |
| WLSYKVASA | 7.42 |

Which Kd value belongs to LNGRKRSTM ?
100

----------
# testedTarget: HLA-A*31:01
# methodNotes: IEDB peptide-MHC binding, purified MHC/competitive/radioactivity; filed as Kd, often an IC50 or EC50 that approximates it; bounds were set here for any values at or beyond the usual limits of such assays
# particulars: source organism: Vaccinia virus WR
Some sequences, each annotated with its measured Kd.
# unit: µM | format: bare number

| biopolymerSequence | Kd [µM] |
| --- | --- |
| PLYIDISDVK | 9.5 |
| TAVCMKCFK | 0.448 |
| VIEDITFLR | 0.0276 |
| VTFRERYSYK | 3.36 |
| QTCAGVIEY | 18.9 |
| FVKKFGLCNY | 12.2 |

Which Kd value belongs to TLDQLEDSEY ?
14.4

----------
# testedTarget: HLA-A*02:03
# methodNotes: IEDB peptide-MHC binding, purified MHC/competitive/radioactivity; filed as Kd, often an IC50 or EC50 that approximates it; bounds were set here for any values at or beyond the usual limits of such assays
# particulars: source organism: Vaccinia virus WR
Some sequences, each annotated with its measured pKd.
Friendly reminder that pKd comes from taking -log10 of the concentration in mol/L.

| biopolymerSequence | pKd |
| --- | --- |
| DAMIHKTYI | 5.82 |
| STFNMWREIL | 6.04 |
| TLLGLILFVL | 6.10 |
| MTSTRTIILV | 6.04 |
| NASKTINAL | 6.15 |

Which pKd value belongs to SIYIAVANCV ?
7.20

Which pKd value belongs to KLFKRERDAI ?
6.92

Which pKd value belongs to IAMLKSKNI ?
6.07

Which pKd value belongs to IVPEFAKQYV ?
7.74

Which pKd value belongs to RQVSVKLLI ?
6.60

Which pKd value belongs to MAAAKTPVI ?
6.68

Which pKd value belongs to AAITLVVISV ?
6.61

----------
Some sequences, each annotated with its measured pKd.
# testedTarget: HLA-B*08:01
# methodNotes: IEDB peptide-MHC binding, purified MHC/competitive/radioactivity; filed as Kd, often an IC50 or EC50 that approximates it; bounds were set here for any values at or beyond the usual limits of such assays
# particulars: source organism: Vaccinia virus WR
Friendly reminder that pKd comes from taking -log10 of the concentration in mol/L.

| biopolymerSequence | testedTarget | pKd |
| --- | --- | --- |
| SLEFIRRSL | HLA-B*08:01 | 5.91 |
| LFLDIECHF | HLA-B*08:01 | 5.95 |
| ENMLRSMPV | HLA-B*08:01 | 9.67 |
| VNKFKFGAA | HLA-B*08:01 | 6.80 |
| LLRKHTLKI | HLA-B*08:01 | 7.68 |

Which pKd value belongs to IRFPRFTRI ?
5.80

Which pKd value belongs to CPRRYLHRL ?
8.58

Which pKd value belongs to SAKTKISVE ?
6.62

Which pKd value belongs to KTINALVYF ?
4.77

----------
# testedTarget: HLA-A*24:02
# methodNotes: IEDB peptide-MHC binding, purified MHC/competitive/radioactivity; filed as Kd, often an IC50 or EC50 that approximates it; bounds were set here for any values at or beyond the usual limits of such assays
# particulars: source organism: SARS coronavirus Tor2
pKd: −log10 of the molar value.
readoutKind: pKd

Example sequences with recorded pKd:
| biopolymerSequence | testedTarget | pKd |
| --- | --- | --- |
| YFMKFRRVF | HLA-A*24:02 | ≤ 4.11 |
| VDSSQGSEY | HLA-A*24:02 | ≤ 4.11 |
| EYISDAFSL | HLA-A*24:02 | ≤ 4.04 |
| SSLPSYAAY | HLA-A*24:02 | ≤ 4.11 |
| FNAPALQEAY | HLA-A*24:02 | ≤ 4.15 |
| TEETFKLSY | HLA-A*24:02 | ≤ 4.52 |
| MFLARAIVF | HLA-A*24:02 | ≤ 4.11 |

Next sequence, pKd to be filled in.
Which pKd value belongs to SASKSASVY ?
≤ 4.11

----------
# testedTarget: HLA-A*03:01
# methodNotes: IEDB peptide-MHC binding, purified MHC/competitive/radioactivity; filed as Kd, often an IC50 or EC50 that approximates it; bounds were set here for any values at or beyond the usual limits of such assays
# particulars: source organism: Vaccinia virus WR
pKd: −log10 of the molar value.
readoutKind: pKd

Example sequences with recorded pKd:
| biopolymerSequence | pKd |
| --- | --- |
| YANLDDVYSY | ≤ 4.59 |
| VSIILANER | ≤ 4.11 |

Which pKd value belongs to FSKNILKYY ?
≤ 4.67

Which pKd value belongs to SAKQLRTRIR ?
≤ 4.15

Data origin, for the record: the Immune Epitope Database (IEDB)
